Molecular target: zfHAE(M)
Experiment: phage ELISA, apparent Kd; PBS, 50 uM ZnCl2, 20 C
Settings: protein: virion; tags: phage fd pIII fusion (Fd-Tet-SN), Zif268 framework; label: 5' biotin
pKd: −log10 of the molar value.
Measure: pKd

Binder: HAE(T) G-GGTC-GGCG (dsDNA) DNA 1: TATAGTGGGTCGGCGTGTCACAGTCAGTCCACACACGTC DNA 2: GACGTGTGTGGACTGACTGTGACACGCCGACCCACTATA
Endpoint Result: 7.57
